Target: HCV NS5B polymerase 1b BK strain (Hepatitis C virus genotype 1b)
Construct: six-histidine tag; made in house; host or cells: E. coli
Assay: HCV NS5B polymerase enzymatic inhibition assay, strain 1b BK
Type: biochemical
Details: enzyme, strain 1b BK; read-out: HCV Polymerase Strain 1b BK IC50
QUANTITY MEASURED: IC50 (nM)
Your answer should be a plain number; it is taken to be in nM.

// worked examples, IC50 included
COMPOUND	QUANTITY MEASURED	DATA VALUE
CS(=O)(=O)N(CC1CCNC1)c1cc2oc(-c3ccc(F)cc3)c(-c3ncc[nH]3)c2cc1C1CC1 (stereo not shown) [Example 51]	IC50	74
CS(=O)(=O)N(CCCC#N)c1cc2oc(-c3ccc(F)cc3)c(-c3ncc[nH]3)c2cc1C1CC1 [Example 49]	IC50	17
CCCC/C=C/c1ccc(-c2oc3cc(N(CCCCS(C)(=O)=O)S(C)(=O)=O)c(C4CC4)cc3c2-c2ncc[nH]2)cc1 [Example 168]	IC50	39.2

Okay, next one:
Summary for this compound, CC(C)N(c1cc2oc(-c3ccc(F)cc3)c(-c3ncc[nH]3)c2cc1C1CC1)S(C)(=O)=O [Example 52] : IC50 is 132

* * *

Biological target: HCV NS5B polymerase 1b BK strain (Hepatitis C virus genotype 1b, UniProt P26663)
Construct: six-histidine tag; made in house; host or cells: E. coli
Sequence (P26663 2420-2989): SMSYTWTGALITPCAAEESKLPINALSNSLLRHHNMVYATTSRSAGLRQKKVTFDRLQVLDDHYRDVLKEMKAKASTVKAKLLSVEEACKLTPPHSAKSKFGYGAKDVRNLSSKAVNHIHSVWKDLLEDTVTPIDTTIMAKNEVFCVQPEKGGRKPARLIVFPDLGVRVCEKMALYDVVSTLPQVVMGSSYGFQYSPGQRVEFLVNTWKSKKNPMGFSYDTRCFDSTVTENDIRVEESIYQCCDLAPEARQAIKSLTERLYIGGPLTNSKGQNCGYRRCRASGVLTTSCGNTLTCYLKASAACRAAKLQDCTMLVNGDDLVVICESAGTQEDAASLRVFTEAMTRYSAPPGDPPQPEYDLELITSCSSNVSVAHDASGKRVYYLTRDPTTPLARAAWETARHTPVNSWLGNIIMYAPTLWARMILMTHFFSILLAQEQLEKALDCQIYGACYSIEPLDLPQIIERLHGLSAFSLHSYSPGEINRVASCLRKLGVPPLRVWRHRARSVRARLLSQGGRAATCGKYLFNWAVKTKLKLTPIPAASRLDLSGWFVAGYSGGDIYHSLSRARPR
Test: HCV NS5B polymerase enzymatic inhibition assay, strain 1b BK
Format: biochemical
Details: enzyme, strain 1b BK; read-out: HCV Polymerase Strain 1b BK IC50
QUANTITY MEASURED: IC50 (nM)
# number only, unit nM dropped from output

Some molecules with recorded IC50:
COMPOUND SMILES	IC50 / nM
[2H]C1([2H])NC(c2c(-c3ccc(F)cc3)oc3cc(N(CCCCS(C)(=O)=O)S(C)(=O)=O)c(C4CC4)cc23)=NO1	5
CC(C)=CCCN(c1cc2oc(-c3ccc(F)cc3)c(-c3ncc[nH]3)c2cc1C1CC1)S(C)(=O)=O	23
CC(C)(O)CCCN(c1cc2oc(-c3ccc(F)cc3)c(-c3ncc[nH]3)c2cc1C1CC1)S(C)(=O)=O	11

Looking up CCN(CC)CCN(c1cc2oc(-c3ccc(F)cc3)c(C3=NOCCN3)c2cc1C1CC1)S(C)(=O)=O , I see its IC50 listed as 466

* * *

Test system: HCV 1a-H77 subgenomic replicon
Experiment: microbe, parasite or virus in culture
Assay type: cell-based, HCV genotype 1a
Details: Hepatitis C virus, stable replicon, strain 1a H77, 5% FBS; read-out: 1a H77 5% FBS EC50
pEC50: −log10 of the molar value.
pEC50 below 7 gives f; pEC50 at or above it gives t.

COMPOUND SMILES	ANSWER LABEL
Cc1ncsc1CCN(c1cc2oc(-c3ccc(F)cc3)c(-c3ncc[nH]3)c2cc1C1CC1)S(C)(=O)=O	t
CS(=O)(=O)N(CCCc1nnn[nH]1)c1cc2oc(-c3ccc(F)cc3)c(-c3ncc[nH]3)c2cc1C1CC1	f
CS(=O)(=O)N(CCC/C(N)=N/O)c1cc2oc(-c3ccc(F)cc3)c(C3=NOCCN3)c2cc1C1CC1	t
CS(=O)(=O)CCCCN(c1cc2oc(-c3ccc(F)cc3)c(C3=NOCCN3)c2cc1C1CC1)S(C)(=O)=O	t

Please examine the following record next.
Problem: Quick check: does CS(=O)(=O)N(CCCC(=O)O)c1cc2oc(-c3ccc(F)cc3)c(-c3ncc[nH]3)c2cc1C1CC1 have pEC50 greater than or equal to 7?
Solution: f

From: patent US20160355530A1
